Test system: Pseudomonas aeruginosa expressing AmpC (CL5701)
assayProcedure: Antibiotic activity: growth inhibitory concentration (OD600), Pseudomonas aeruginosa CL5701
Type: cell-based
details: lowest concentration inhibiting 95% of bacterial growth; in the presence of β lactamase inhibitor Relebactam 4 μg/mL; 35±2° C. for 22 hours; tested range 100 μM to 0.098 μM
Method: Antibiotic Activity: Determination of Growth Inhibitory Concentration The concentrations of compounds required to inhibit the growth of various strains of bacteria were determined in an assay that assessed bacterial growth by measuring optical density at 600 nm (OD600). […] At the end of the incubation, absorbance at 600 nm was determined using a spectrophotometer. […]
Structures can show the parent of a compound that is named as a salt.
Provide the recorded PA_CL5701 MITC95 for the entries that follow.
Reply with the number, then its unit.

Problem: Give the measured PA_CL5701 MITC95 for CC1(C)[C@H](NC(=O)/C(=N\O[C@@](C)(COc2ccc(-n3cc[n+](CCCN)c3)nc2)C(=O)O)c2csc(N)n2)C(=O)N1OS(=O)(=O)[O-]
Solution: 12.5 µM

Problem: Give the measured PA_CL5701 MITC95 for C[n+]1cc(-c2ccc(OC[C@H](O/N=C(\C(=O)N[C@@H]3C(=O)N(OS(=O)(=O)[O-])C3(C)C)c3csc(N)n3)C(=O)O)cc2)ccc1CNCCN
Solution: 12.5 µM

Problem: Give the measured PA_CL5701 MITC95 for CC1(C)[C@H](NC(=O)/C(=N\O[C@@H](COc2ccc(-c3ccnc(NCCCN)c3)cc2)C(=O)O)c2csc(N)n2)C(=O)N1OS(=O)(=O)O
Solution: 12.5 µM

Problem: Give the measured PA_CL5701 MITC95 for C[n+]1cc(-c2ccc(OC[C@](C)(O/N=C(\C(=O)N[C@@H]3C(=O)N(OS(=O)(=O)O)C3(C)C)c3csc(N)n3)C(=O)O)cc2)cn1CCCN (single isomer, unassigned) [Example 23B, 2,2,2-trifluoroacetate]
Solution: 25 µM

Problem: Give the measured PA_CL5701 MITC95 for C[n+]1cc(-c2ccc(NCC(O/N=C(\C(=O)N[C@@H]3C(=O)N(OS(=O)(=O)[O-])C3(C)C)c3csc(N)n3)C(=O)O)cc2)cn1CCCN (stereo partly drawn)
Solution: 12.5 µM

Problem: Give the measured PA_CL5701 MITC95 for CC1(C)[C@H](NC(=O)/C(=N\O[C@@H](COc2ccc(C3CN=C(NCCN)NC3)cc2)C(=O)O)c2csc(N)n2)C(=O)N1OS(=O)(=O)O (stereo partly drawn)
Solution: 3.125 µM

Problem: Give the measured PA_CL5701 MITC95 for CC1(C)[C@H](NC(=O)/C(=N\O[C@@H](COc2ccc(Oc3cc[n+](CCCN)cc3)nc2)C(=O)O)c2csc(N)n2)C(=O)N1OS(=O)(=O)O.O=C([O-])C(F)(F)F
Solution: 25 µM

Problem: Give the measured PA_CL5701 MITC95 for C[n+]1cc(-c2ccc(OC[C@H](O/N=C(\C(=O)N[C@@H]3C(=O)N(OS(=O)(=O)[O-])C3(C)C)c3csc(N)n3)C(=O)O)cc2)c(N)n1CCCN
Solution: 6.25 µM

Problem: Give the measured PA_CL5701 MITC95 for C[n+]1ccc(-c2ccc(OC[C@H](O/N=C(\C(=O)N[C@@H]3C(=O)N(OS(=O)(=O)[O-])C3(C)C)c3csc(N)n3)C(=O)O)cc2)cc1NCCCN
Solution: 6.25 µM

Problem: Give the measured PA_CL5701 MITC95 for CC1(C)[C@H](NC(=O)/C(=N\O[C@@H](COc2ccc(-c3cn(C[C@@H](O)CN)[n+](CC4CNC4)c3)cc2)C(=O)O)c2csc(N)n2)C(=O)N1OS(=O)(=O)[O-]
Solution: 1.563 µM

Problem: Give the measured PA_CL5701 MITC95 for Cn1c(-c2ccc(OC[C@H](O/N=C(\C(=O)N[C@@H]3C(=O)N(OS(=O)(=O)O)C3(C)C)c3csc(N)n3)C(=O)O)cc2)cn(CC(CN)CN)c1=N
Solution: 1.563 µM

Problem: Give the measured PA_CL5701 MITC95 for CC1(C)[C@H](NC(=O)/C(=N\O[C@@H](COc2ccc(-c3ccc(C(=O)NC(CN)CN)nc3)cc2)C(=O)O)c2csc(N)n2)C(=O)N1OS(=O)(=O)O
Solution: 3.125 µM

Problem: Give the measured PA_CL5701 MITC95 for C[n+]1cc(-c2ccc(OC(CO/N=C(\C(=O)N[C@@H]3C(=O)N(OS(=O)(=O)[O-])C3(C)C)c3csc(N)n3)C(=O)O)cc2)cn1CCCN (single isomer, unassigned) [Example 85]
Solution: 40 µM

Problem: Give the measured PA_CL5701 MITC95 for CC1(C)[C@H](NC(=O)/C(=N\OCCOc2ccc(-n3cc[n+](CCCN)c3)nc2)c2csc(N)n2)C(=O)N1OS(=O)(=O)[O-] [Example 35, sulfate 2,2,2-trifluoroacetate]
Solution: 50 µM

Problem: Give the measured PA_CL5701 MITC95 for C[n+]1c(N)c(-c2ccc(OC[C@H](O/N=C(\C(=O)N[C@@H]3C(=O)N(OS(=O)(=O)[O-])C3(C)C)c3nc(N)sc3Cl)C(=O)O)cc2)cn1CCCN
Solution: 6.25 µM

Problem: Give the measured PA_CL5701 MITC95 for C[n+]1c(N)c(-c2ccc(OC[C@H](O/N=C(\C(=O)N[C@@H]3C(=O)N(OS(=O)(=O)[O-])C3(C)C)c3nc(N)sc3Cl)C(=O)O)cc2F)cn1CCCN
Solution: 6.25 µM

Problem: Give the measured PA_CL5701 MITC95 for C[n+]1cc(-c2ccc(OC[C@H](O/N=C(\C(=O)N[C@@H]3C(=O)N(OS(=O)(=O)[O-])C3(C)C)c3csc(N)n3)C(=O)O)cc2)ccc1C(=O)NC(CN)CN
Solution: 3.125 µM

Problem: Give the measured PA_CL5701 MITC95 for C[n+]1cc(-c2ccc(OC[C@](C)(O/N=C(\C(=O)N[C@@H]3C(=O)N(OS(=O)(=O)[O-])C3(C)C)c3csc(N)n3)C(=O)O)cc2F)cn1CCCN
Solution: 3.125 µM

Problem: Give the measured PA_CL5701 MITC95 for C[n+]1cc(-c2ccc(OC[C@H](O/N=C(\C(=O)N[C@@H]3C(=O)N(OS(=O)(=O)[O-])C3(C)C)c3csc(N)n3)C(=O)O)cc2)cn1CC1CNC1
Solution: 3.125 µM

Problem: Give the measured PA_CL5701 MITC95 for CC1(C)[C@H](NC(=O)/C(=N\O[C@@H](COc2ccc(-c3cn(CCCN)cn3)cc2)C(=O)O)c2csc(N)n2)C(=O)N1OS(=O)(=O)O
Solution: 6.25 µM

Problem: Give the measured PA_CL5701 MITC95 for C[n+]1cc(-c2ccc(CCC(O/N=C(\C(=O)N[C@@H]3C(=O)N(OS(=O)(=O)[O-])C3(C)C)c3csc(N)n3)C(=O)O)cc2)cn1CCCN (single isomer, unassigned)
Solution: 6.25 µM
